Molecular target: Bos taurus Arp2/3 complex (Bos taurus, UniProt A7MB62+P61157)
Assay: Pyrene actin polymerization assay
Assay type: biochemical
Settings: actin polymerization assay, compared to 1
metric: increase in IC50 relative to 1

{"compound": "Cc1[nH]c2ccccc2c1CCNC(=O)c1cccc(Cl)c1F [Compound 8]", "test-value": "15-20 fold"}
{"compound": "Cc1[nH]c2ccccc2c1CCNC(=O)c1ccc(Cl)cc1 [Compound 7]", "test-value": "15-20 fold"}

====

Target: Bos taurus Arp2/3 complex (Bos taurus, UniProt A7MB62+P61157)
Experiment: Pyrene actin polymerization assay
pIC50: −log10 of the molar value.

{"molecule": "Cc1[nH]c2ccccc2c1CCNC(=O)c1ccc(Cl)cc1F [Compound 6]", "pIC50": 4.49}
{"molecule": "Cc1[nH]c2ccccc2c1CCNC(=O)c1ccc(Cl)cc1 [Compound 7]", "pIC50": 3.74}
{"molecule": "Cc1[nH]c2ccccc2c1CCNC(=O)c1ccc(O)cc1F [Compound 2]", "pIC50": 5.40}
{"molecule": "Cc1[nH]c2ccccc2c1CCNC(=O)c1cccc(Cl)c1F [Compound 8]", "pIC50": 3.62}
{"molecule": "COc1ccc(C(=O)NCCc2c(C)[nH]c3ccccc23)c(F)c1 [Compound 4]", "pIC50": 4.72}
{"molecule": "Cc1[nH]c2ccc(Cl)cc2c1CCNC(=O)c1ccccc1F [Compound 3]", "pIC50": 4.74}
